Test: Half life in Wistar Han rat at 2 mg/kg, iv by LC/MS method
Type: ADME, organism-based
Settings: in vivo
So basically: half-life at 5 h or higher? That is y. Lower than 5 h? That is n.

CCc1ccc([C@@H]2Oc3cc(-c4cnc([C@@H]5CCCN5C(=O)[C@@H](NC(=O)OC)C(C)C)[nH]4)cc(F)c3-c3cc4cc(-c5cnc([C@@H]6CCCN6C(=O)[C@@H](NC(=O)OC)[C@@H]6CCOC(C)(C)C6)[nH]5)ccc4n32)s1 | y
COC(=O)N[C@H](C(=O)N1CCC[C@H]1c1ncc(-c2cc(F)c3c(c2)O[C@@H](c2ccc(C4CC4)s2)n2c-3cc3cc(-c4cnc([C@@H]5CCCN5C(=O)[C@@H](NC(=O)OC)C5CCO[C@@H](C)C5)[nH]4)ccc32)[nH]1)C(C)C (stereo partly drawn) | y
COC(=O)N[C@H](C(=O)N1CCC[C@H]1c1ncc(-c2cc(F)c3c(c2)O[C@@H](c2ccc(C4CC4)s2)n2c-3cc3cc(-c4cnc([C@@H]5CCCN5C(=O)[C@@H](NC(=O)OC)C5CCO[C@H](C)C5)[nH]4)ccc32)[nH]1)C(C)C (stereo partly drawn) | n
COC(=O)N[C@H](C(=O)N1CCC[C@H]1c1ncc(-c2ccc3c(c2)cc2n3[C@H](c3ccc(C4CC4)s3)Oc3cc(-c4cnc([C@@H]5CCCN5C(=O)[C@@H](NC(=O)OC)[C@@H]5CCOC(C)(C)C5)[nH]4)cc(F)c3-2)[nH]1)C(C)C | y
COC(=O)N[C@H](C(=O)N1CCC[C@H]1c1ncc(-c2cc(F)c3c(c2)O[C@@H](c2cnc(C4CC4)s2)n2c-3cc3cc(-c4cnc([C@@H]5CCCN5C(=O)[C@@H](NC(=O)OC)[C@@H]5CCOC(C)(C)C5)[nH]4)ccc32)[nH]1)C(C)C | n

Input line: Is it the case that COC(=O)N[C@H](C(=O)N1CCC[C@H]1c1ncc(-c2cc(F)c3c(c2)O[C@@H](c2ccc4c(c2)OCCC4)n2c-3cc3cc(-c4cnc([C@@H]5CCCN5C(=O)[C@@H](NC(=O)OC)C5CCOCC5)[nH]4)ccc32)[nH]1)C(C)C has half-life reaching or exceeding 5 h?
Output line: n

Input line: Is the recorded value of half-life equal to or greater than 5 h for this compound? COC(=O)N[C@H](C(=O)N1CCC[C@H]1c1ncc(-c2cc(F)c3c(c2)O[C@@H](c2ccc(C4CC4)s2)n2c-3cc3cc(-c4cnc([C@@H]5CCCN5C(=O)[C@@H](NC(=O)OC)C5CC6CCC(C5)O6)[nH]4)ccc32)[nH]1)C(C)C (stereo partly drawn)
Output line: n

Input line: Determine whether this compound has half-life no lower than 5 h: COC(=O)N[C@H](C(=O)N1CCC[C@H]1c1ncc(-c2cc(F)c3c(c2)O[C@@H](c2ccc(C4CC4)s2)n2c-3cc3cc(-c4cnc([C@@H]5CCCN5C(=O)[C@@H](NC(=O)OC)[C@H]5CCOC(C)(C)C5)[nH]4)ccc32)[nH]1)C(C)C
Output line: y
